Measured target: Acyl-homoserine lactone acylase PvdQ [A190E,F674L] (Pseudomonas aeruginosa, UniProt Q9I194, A190E/F674L)
Sequence (Q9I194 whole entry, looked up, stated change not applied): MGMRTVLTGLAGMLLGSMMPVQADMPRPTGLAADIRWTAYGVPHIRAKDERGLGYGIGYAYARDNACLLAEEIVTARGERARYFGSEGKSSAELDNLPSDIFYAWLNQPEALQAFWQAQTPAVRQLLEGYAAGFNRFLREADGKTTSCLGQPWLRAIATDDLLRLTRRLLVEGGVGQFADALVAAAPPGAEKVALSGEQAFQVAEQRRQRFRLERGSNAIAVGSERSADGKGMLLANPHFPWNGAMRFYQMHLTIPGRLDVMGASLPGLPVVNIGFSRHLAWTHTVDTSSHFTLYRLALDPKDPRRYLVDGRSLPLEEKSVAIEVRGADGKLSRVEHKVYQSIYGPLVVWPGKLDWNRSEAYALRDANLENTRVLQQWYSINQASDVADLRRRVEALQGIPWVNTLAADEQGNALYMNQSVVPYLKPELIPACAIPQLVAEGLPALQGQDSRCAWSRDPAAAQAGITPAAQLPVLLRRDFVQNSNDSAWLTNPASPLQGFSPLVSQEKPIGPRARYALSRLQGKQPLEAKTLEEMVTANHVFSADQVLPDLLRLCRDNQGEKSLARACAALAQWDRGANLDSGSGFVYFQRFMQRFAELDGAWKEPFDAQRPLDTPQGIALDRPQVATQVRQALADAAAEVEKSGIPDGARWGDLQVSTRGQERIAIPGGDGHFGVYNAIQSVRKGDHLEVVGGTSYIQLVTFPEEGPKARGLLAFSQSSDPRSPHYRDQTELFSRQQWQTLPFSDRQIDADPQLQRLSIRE
Protocol notes: PvdQ IC50 Assay
Reported property: IC50 (nM)
The answer is to be given in nM; state only the numeric part.

| Compound | IC50 / nM |
| --- | --- |
| CCCC(C#N)c1ccc(Cl)cc1 (stereo unspecified) | 5900 |
| CCCCC(C#N)c1ccc(Cl)cc1 (stereo unspecified) | 1400 |
| N#CC(c1ccc(Cl)cc1)c1ccccn1 (stereo unspecified) | 270 |
| CCCCC(c1ccc(Cl)cc1)c1nnn[nH]1 (stereo unspecified) | 6700 |
| N#CC(c1ccc(Cl)cc1)c1ccc(C(F)(F)F)c(Cl)n1 (stereo unspecified) | 620 |
| N#CC(c1ccc(Cl)cc1Cl)c1ncccc1Cl (stereo unspecified) | 210 |
| N#CC(c1cccc(Cl)n1)c1ccccc1OC(F)(F)F (stereo unspecified) | 1700 |
| N#CC(c1ccc(C(F)(F)F)cc1)c1ccc(C(F)(F)F)c(Cl)n1 (stereo unspecified) | 2300 |

Which measured IC50 value corresponds to N#CC(c1ccc(C(F)(F)F)c(Cl)n1)c1ccc(Cl)cc1F (stereo unspecified) ?
630

Returns the measured IC50 for the input compound. Input: CC(C)CC(C#N)c1ccc(Cl)cc1 (stereo unspecified)
290

May I ask what IC50 has been recorded for N#Cc1cccc(C(C#N)c2ccc(Cl)cc2Cl)n1 (stereo unspecified) ?
290
